Entries and their pEC50 values follow.
# Assayed Target: ABCB4 WT (Homo sapiens)
# Sequence (P21439 whole entry): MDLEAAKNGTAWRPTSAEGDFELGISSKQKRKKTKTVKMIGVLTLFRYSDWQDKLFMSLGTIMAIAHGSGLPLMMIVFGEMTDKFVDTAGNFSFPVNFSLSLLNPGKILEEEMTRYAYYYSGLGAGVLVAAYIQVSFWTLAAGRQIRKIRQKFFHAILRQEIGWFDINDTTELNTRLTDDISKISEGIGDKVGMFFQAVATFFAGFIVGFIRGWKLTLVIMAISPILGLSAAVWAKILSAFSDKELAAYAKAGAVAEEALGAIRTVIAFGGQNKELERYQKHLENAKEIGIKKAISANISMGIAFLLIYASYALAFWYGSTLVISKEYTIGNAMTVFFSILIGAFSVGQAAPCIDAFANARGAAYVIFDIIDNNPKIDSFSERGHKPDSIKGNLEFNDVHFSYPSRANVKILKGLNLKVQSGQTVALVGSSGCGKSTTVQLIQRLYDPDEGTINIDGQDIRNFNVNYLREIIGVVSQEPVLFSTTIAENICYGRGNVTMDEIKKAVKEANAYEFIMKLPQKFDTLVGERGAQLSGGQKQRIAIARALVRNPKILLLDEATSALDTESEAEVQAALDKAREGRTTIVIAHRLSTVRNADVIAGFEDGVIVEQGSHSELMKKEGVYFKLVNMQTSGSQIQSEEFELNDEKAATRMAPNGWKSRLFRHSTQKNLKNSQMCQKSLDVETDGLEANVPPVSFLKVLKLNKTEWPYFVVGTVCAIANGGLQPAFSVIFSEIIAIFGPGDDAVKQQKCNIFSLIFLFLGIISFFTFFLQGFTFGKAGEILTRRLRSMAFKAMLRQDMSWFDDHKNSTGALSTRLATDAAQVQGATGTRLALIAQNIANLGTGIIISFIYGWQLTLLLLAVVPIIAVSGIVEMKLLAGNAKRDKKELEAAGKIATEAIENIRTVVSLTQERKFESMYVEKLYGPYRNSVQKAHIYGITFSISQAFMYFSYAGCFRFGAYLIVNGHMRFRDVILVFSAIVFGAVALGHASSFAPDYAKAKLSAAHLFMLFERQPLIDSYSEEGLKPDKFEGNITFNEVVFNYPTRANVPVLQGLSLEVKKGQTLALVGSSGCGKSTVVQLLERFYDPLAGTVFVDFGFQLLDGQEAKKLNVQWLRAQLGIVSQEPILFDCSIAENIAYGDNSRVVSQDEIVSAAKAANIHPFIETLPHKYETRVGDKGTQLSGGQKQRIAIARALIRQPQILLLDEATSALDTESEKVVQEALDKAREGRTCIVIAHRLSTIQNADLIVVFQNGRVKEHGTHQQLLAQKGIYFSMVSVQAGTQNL
# Assay Name: ABCB4 WT assay: HiBit protein expression
# Test Conditions: HEK-293 cells stably expressing HiBit-tagged ABCB4 WT; 24 h treatment; top concentration 30 μM; read-out: ABCB4 WT EC50, Emax
pEC50: −log10 of the molar value.

> print(dat)
                      smiles.representation           val
1  Cc1cc(C)c(Oc2nc(N3CCN(C(=O)C4COC4)CC3)ccc2NS(C)(=O)=O)c(C)c1  4.60 to 5.00
2  Cc1cc(C)c(Oc2nc(-n3cc(C#N)cn3)ccc2NS(C)(=O)=O)c(C)c1        > 4.60
3  Cc1cc(C)c(Oc2nc(N3CCn4c(C)nnc4C3)ccc2NS(C)(=O)=O)c(C)c1        > 4.60
4  Cc1cc(C(F)(F)F)nc(C2CC2)c1Oc1nc(-c2cncc(C#N)c2)ccc1N=S(C)(C)=O        ≤ 4.60
5  Cc1cc(C(F)F)nc(C)c1Oc1nc(-c2cncc(C#N)c2)ccc1NS(C)(=O)=O        > 6.00

Endpoint output: pEC50 of Cc1cc(C2CC2)nc(C)c1Oc1nc(-c2cncc(C#N)c2)ccc1NS(=O)(=O)C1CCC1 . Value? ≤ 4.60

Endpoint output: pEC50 of Cc1nc(C2CC2)nc(C)c1Oc1nc(-c2cncc(C#N)c2)ccc1NS(C)(=O)=O . Value? > 6.00

Endpoint output: pEC50 of CNS(=O)(=O)c1ncc(-c2cncc(Cl)c2)nc1Oc1c(C)cc(C)c(Cl)c1C . Value? 5.00 to 6.00

Values were extracted from patent US20250228835A1.
